experimental.target: T1, Cynomolgus monkey CD98 ECD with C-terminal His-tag (cynomolgus monkey, UniProt P08195 105-529 (human entry))
T1 construct: also called cyCD98 ECD; recombinant cynomolgus monkey CD98 extracellular domain
T1 chain: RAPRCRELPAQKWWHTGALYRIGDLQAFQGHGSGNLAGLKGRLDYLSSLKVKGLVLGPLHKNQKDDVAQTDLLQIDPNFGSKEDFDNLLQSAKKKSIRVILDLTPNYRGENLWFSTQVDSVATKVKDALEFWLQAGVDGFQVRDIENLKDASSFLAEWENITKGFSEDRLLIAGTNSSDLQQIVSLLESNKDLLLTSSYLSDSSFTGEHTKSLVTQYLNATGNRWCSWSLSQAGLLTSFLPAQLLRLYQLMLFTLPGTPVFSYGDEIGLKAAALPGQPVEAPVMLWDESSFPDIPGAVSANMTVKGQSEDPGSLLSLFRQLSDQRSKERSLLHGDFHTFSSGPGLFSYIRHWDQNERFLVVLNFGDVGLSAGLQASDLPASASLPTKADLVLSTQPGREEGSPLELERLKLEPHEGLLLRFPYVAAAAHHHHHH
assay.text: SPR Biacore, anti-Fc capture of mAb, CD98 ECD analyte
value.kind: kon (M⁻¹ s⁻¹)
Number only, in M⁻¹ s⁻¹; omit the unit.

INSERT INTO measurements (binder, value_kind, test_value) VALUES
  ('Recombinant anti-CD98 chimeric antibody chAb7 (antibody, human IgG1, V domains shown) VH: QVQLKESGPGLVQPSQTLSLTCTVSGFSLSTYGVIWVRQPPGKGLEWMGVIWANGNTNYNSTLKSRLSISRDTSKSQVYLKMNSLQTEDTATYYCARHYYDGTYYYGYFDYWGQGVMVTVSS VL: DIVMTQTPSSQAVSAGEKVTMNCKSSQSLLYSENKKNYLAWYQQKPGQSPKLLIYWASTRESGVPDRFIGSGSGTDFTLTISSVQAEDLAVYYCQQYYYFPYTFGPGTKLELK', 'kon', 63000);

// Recombinant anti-CD98 chimeric antibody chAb3 (antibody, human IgG1, V domains shown) VH: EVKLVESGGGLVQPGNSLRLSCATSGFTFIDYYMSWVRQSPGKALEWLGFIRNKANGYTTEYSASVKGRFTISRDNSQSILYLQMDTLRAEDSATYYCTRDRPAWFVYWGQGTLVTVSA VL: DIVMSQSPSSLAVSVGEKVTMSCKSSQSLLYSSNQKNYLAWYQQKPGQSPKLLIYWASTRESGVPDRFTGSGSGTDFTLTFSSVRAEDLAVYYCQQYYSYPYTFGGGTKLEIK : kon value = 39000
